System: L1210
protocol-description: Inhibition of [3H]thymidine uptake in L1210 cells at 1 uM
Type: functional
condition: Mus musculus
measurement-label: inhibition at 1 µM (%)
Give bare numbers, in %.

Recorded inhibition at 1 µM, per entry:
molecule=COc1ccc(CNc2nc(OCCO)nc3c(NCc4ccc(OC)cc4)nc(OCCO)nc23)cc1 measurement_label="inhibition at 1 µM" number=40
molecule=COc1ccc(CNc2nc(N(CCO)CCO)nc3c(NCc4ccc(OC)cc4)nc(N(CCO)CCO)nc23)cc1 measurement_label="inhibition at 1 µM" number=65
molecule="COCC(COc1nc(N2CCCCC2)c2nc(OCC(COC)OC)nc(N3CCCCC3)c2n1)OC (configuration not stated)" measurement_label="inhibition at 1 µM" number=38

For every record below, what is its inhibition at 1 µM?
1. CC(O)CNc1nc(NCc2ccc3c(c2)OCO3)c2nc(NCC(C)O)nc(NCc3ccc4c(c3)OCO4)c2n1 (configuration not stated)
2. COc1ccc(CN(C)c2nc(OCCCO)nc3c(N(C)Cc4ccc(OC)c(OC)c4)nc(OCCCO)nc23)cc1OC
3. CN(Cc1ccccc1)c1nc(OCCO)nc2c(N(C)Cc3ccccc3)nc(OCCO)nc12
4. COc1ccc(CN(C)c2nc(OCCO)nc3c(N(C)Cc4ccc(OC)cc4)nc(OCCO)nc23)cc1
5. COc1ccc(CNc2nc(OC[C@@H](C)O)nc3c(NCc4ccc(OC)cc4)nc(OC[C@H](C)O)nc23)cc1
6. OCC(O)CNc1nc(N2CCCCC2)c2nc(NCC(O)CO)nc(N3CCCCC3)c2n1 (configuration not stated)
7. OCCN(CCO)c1nc(N2CCc3ccccc3C2)c2nc(N(CCO)CCO)nc(N3CCc4ccccc4C3)c2n1
8. COc1ccc(CN(C)c2nc(OCCCO)nc3c(N(C)Cc4ccc(OC)cc4)nc(OCCCO)nc23)cc1

// result
69
54
49
74
68
18
72
78

For every record below, what is its inhibition at 1 µM?
1. CN(Cc1ccccc1)c1nc(OCCCO)nc2c(N(C)Cc3ccccc3)nc(OCCCO)nc12
2. COc1ccc(CNc2nc(NCC(C)O)nc3c(NCc4ccc(OC)c(OC)c4)nc(NCC(C)O)nc23)cc1OC (configuration not stated)
3. C[C@H](O)COc1nc(N(C)Cc2ccccc2)c2nc(OC[C@@H](C)O)nc(N(C)Cc3ccccc3)c2n1
4. OCCN(CCO)c1nc(N2CCCC(O)C2)c2nc(N(CCO)CCO)nc(N3CCCC(O)C3)c2n1 (configuration not stated)
5. COc1ccc(CNc2nc(OCCCO)nc3c(NCc4ccc(OC)c(OC)c4)nc(OCCCO)nc23)cc1OC
6. COc1ccc(CN(C)c2nc(N(CCO)CCO)nc3c(N(C)Cc4ccc(OC)cc4)nc(N(CCO)CCO)nc23)cc1

// result
1. 52
2. 83
3. 55
4. 28
5. 71
6. 71

For every record below, what is its inhibition at 1 µM?
1. OCCCOc1nc(N2CCCCC2)c2nc(OCCCO)nc(N3CCCCC3)c2n1
2. OCCNc1nc(NCc2ccccc2)c2nc(NCCO)nc(NCc3ccccc3)c2n1
3. COc1ccc(CNc2nc(NCC(C)O)nc3c(NCc4ccc(OC)cc4)nc(NCC(C)O)nc23)cc1 (configuration not stated)
4. COc1ccc(CN(C)c2nc(NCC(C)O)nc3c(N(C)Cc4ccc(OC)c(OC)c4)nc(NCC(C)O)nc23)cc1OC (configuration not stated)

// result
35
46
58
73

For every record below, what is its inhibition at 1 µM?
1. OCCN(CCO)c1nc(NCc2ccc3c(c2)OCO3)c2nc(N(CCO)CCO)nc(NCc3ccc4c(c3)OCO4)c2n1
2. COc1ccc(CN(C)c2nc(NCCO)nc3c(N(C)Cc4ccc(OC)c(OC)c4)nc(NCCO)nc23)cc1OC
3. COc1ccc(CNc2nc(NCCO)nc3c(NCc4ccc(OC)c(OC)c4)nc(NCCO)nc23)cc1OC

// result
73
57
62

For every record below, what is its inhibition at 1 µM?
1. CC(O)CNc1nc(N(C)Cc2ccccc2)c2nc(NCC(C)O)nc(N(C)Cc3ccccc3)c2n1 (configuration not stated)
2. OCCOc1nc(N2CCCCC2)c2nc(OCCO)nc(N3CCCCC3)c2n1
3. COc1ccc(CNc2nc(OCCCO)nc3c(NCc4ccc(OC)cc4)nc(OCCCO)nc23)cc1
4. OCCN(CCO)c1nc(NCc2ccc(Cl)cc2)c2nc(N(CCO)CCO)nc(NCc3ccc(Cl)cc3)c2n1
5. COCCN(CCOC)c1nc(N2CCCCC2)c2nc(N(CCOC)CCOC)nc(N3CCCCC3)c2n1
6. OCCN(CCO)c1nc(N2CCCCC2)nc2c(N(CCO)CCO)nc(N3CCCCC3)nc12
7. COc1ccc(CNc2nc(OCCO)nc3c(NCc4ccc(OC)c(OC)c4)nc(OCCO)nc23)cc1OC
8. OCCN(CCO)c1nc(NCc2ccc(C(F)(F)F)cc2)c2nc(N(CCO)CCO)nc(NCc3ccc(C(F)(F)F)cc3)c2n1

// result
1: 56; 2: 13; 3: 63; 4: 53; 5: 29; 6: 34; 7: 56; 8: 32
